endpoint: Ki

# get_value(readout= Ki, system= μ opiate receptor (Cavia porcellus, UniProt A0ACM8Q262)) for Oc1ccc2c3c1O[C@H]1c4[nH]c5ccccc5c4C[C@@]4(O)[C@@H](C2)N(CC2CC2)CC[C@]314 [Naltrindole] 2.5 nM

# get_value(readout= Ki, system= μ opiate receptor (Cavia porcellus, UniProt A0ACM8Q262)) for C[C@@H](NC(=O)[C@@H](N)Cc1ccc(O)cc1)C(=O)NCC(=O)N(C)[C@@H](Cc1ccccc1)C(=O)NCCO [DAMGO] 0.59 nM

# get_value(readout= Ki, system= μ opiate receptor (Cavia porcellus, UniProt A0ACM8Q262)) for O=C1CN2C(=O)CCN(CCc3ccc(O)cc3)C2CN1CCc1ccccc1 (stereo not shown) [Compound 5] 640 nM

# get_value(readout= Ki, system= μ opiate receptor (Cavia porcellus, UniProt A0ACM8Q262)) for Oc1ccc2c3c1O[C@H]1c4[nH]c5c(c4C[C@@]4(O)[C@@H](C2)N(CC2CC2)CC[C@]314)C[C@@]1(O)[C@H]2Cc3ccc(O)c4c3[C@@]1(CCN2CC1CC1)[C@H]5O4 [Norbinaltorphimine] 26 nM
